system: PBMC from coeliac subjects; experiment: IFNγ ELISPOT with PBMC of coeliac disease subjects after bread/gluten challenge; assay type: cell-based, human; details: peptide without transglutaminase treatment; mean (range), 3 subjects, as in Example 2; note: unit not given here
recordedEndpoint: Elisopt response No TG

{"columns": ["sequenceChain", "Elisopt response No TG"],
 "data": [
  ["QLQPFSQPQLPYSQPQP", "0 (0-0)"]
]}

Q: For the sequence shown here, QLQPFPQPQLPYSQPQP , give the reported Elisopt response No TG.
Result: 5 (1-7)

Q: Try this sequence too: PQLPYPQPQLPYPQPQP
Result: 3 (0-7)

Q: Another sequence to look at: PQPQPFPPQLPYPQPQS
Result: 17 (0-40)

Q: Entry to check: PQPQPFPPQLPYPQPPP
Result: 10 (0-30)

Q: Please give the result for QLQPFPQPQLPYPQPQP too.
Result: 12 (0-20)

Q: Similarly, QLQPFLQPQLPYSQPQP ?
Result: 0 (0-1)

Q: Continue with PQPQPFLPQLPYPQPQS
Result: 10 (0-30)

Q: Check QLQPFPQPQLPYPQPQL too.
Result: 19 (0-33)
